target: Integrin beta-1 (Homo sapiens) + Integrin alpha-4 (Homo sapiens) (UniProt P13612+P05556); assay: inhibition of HUTS-21 binding to VLA-4, pilot screen, VLA-4 allosteric modulator project, U937 cells, HUTS-21 mAb, flow cytometry, validation set (AID 2674); details: HUTS-21 LIBS mAb binding, at 6.7 µM, active compounds read high, binding induced by LDV ligand;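 note: antibody binding induced by the VLA-4 ligand LDV present at three times its Kd; 0% = LDV ligand with antibody and no compound and 100% = antibody without LDV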
Sequence (P05556 whole entry, looked up): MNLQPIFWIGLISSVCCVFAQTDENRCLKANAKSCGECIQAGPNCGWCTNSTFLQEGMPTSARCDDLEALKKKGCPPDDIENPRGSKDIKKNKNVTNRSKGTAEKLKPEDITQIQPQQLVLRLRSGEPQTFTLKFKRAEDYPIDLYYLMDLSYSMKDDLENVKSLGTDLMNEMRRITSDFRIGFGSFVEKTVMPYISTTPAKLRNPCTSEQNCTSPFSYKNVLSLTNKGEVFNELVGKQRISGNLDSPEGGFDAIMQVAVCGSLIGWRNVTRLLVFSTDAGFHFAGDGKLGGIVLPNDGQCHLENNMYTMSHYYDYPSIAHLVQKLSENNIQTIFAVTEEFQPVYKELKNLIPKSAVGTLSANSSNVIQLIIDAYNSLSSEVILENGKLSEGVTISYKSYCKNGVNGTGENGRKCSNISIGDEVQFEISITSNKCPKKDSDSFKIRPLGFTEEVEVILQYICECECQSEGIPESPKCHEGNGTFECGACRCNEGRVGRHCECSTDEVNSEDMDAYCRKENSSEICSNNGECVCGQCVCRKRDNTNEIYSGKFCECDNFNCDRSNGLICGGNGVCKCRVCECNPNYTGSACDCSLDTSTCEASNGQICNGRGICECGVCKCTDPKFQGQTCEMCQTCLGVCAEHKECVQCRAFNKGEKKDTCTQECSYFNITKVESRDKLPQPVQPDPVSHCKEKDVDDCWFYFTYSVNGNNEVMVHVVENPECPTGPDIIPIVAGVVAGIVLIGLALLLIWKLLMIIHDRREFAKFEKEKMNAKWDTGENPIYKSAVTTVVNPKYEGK
Sequence (P13612 whole entry, looked up): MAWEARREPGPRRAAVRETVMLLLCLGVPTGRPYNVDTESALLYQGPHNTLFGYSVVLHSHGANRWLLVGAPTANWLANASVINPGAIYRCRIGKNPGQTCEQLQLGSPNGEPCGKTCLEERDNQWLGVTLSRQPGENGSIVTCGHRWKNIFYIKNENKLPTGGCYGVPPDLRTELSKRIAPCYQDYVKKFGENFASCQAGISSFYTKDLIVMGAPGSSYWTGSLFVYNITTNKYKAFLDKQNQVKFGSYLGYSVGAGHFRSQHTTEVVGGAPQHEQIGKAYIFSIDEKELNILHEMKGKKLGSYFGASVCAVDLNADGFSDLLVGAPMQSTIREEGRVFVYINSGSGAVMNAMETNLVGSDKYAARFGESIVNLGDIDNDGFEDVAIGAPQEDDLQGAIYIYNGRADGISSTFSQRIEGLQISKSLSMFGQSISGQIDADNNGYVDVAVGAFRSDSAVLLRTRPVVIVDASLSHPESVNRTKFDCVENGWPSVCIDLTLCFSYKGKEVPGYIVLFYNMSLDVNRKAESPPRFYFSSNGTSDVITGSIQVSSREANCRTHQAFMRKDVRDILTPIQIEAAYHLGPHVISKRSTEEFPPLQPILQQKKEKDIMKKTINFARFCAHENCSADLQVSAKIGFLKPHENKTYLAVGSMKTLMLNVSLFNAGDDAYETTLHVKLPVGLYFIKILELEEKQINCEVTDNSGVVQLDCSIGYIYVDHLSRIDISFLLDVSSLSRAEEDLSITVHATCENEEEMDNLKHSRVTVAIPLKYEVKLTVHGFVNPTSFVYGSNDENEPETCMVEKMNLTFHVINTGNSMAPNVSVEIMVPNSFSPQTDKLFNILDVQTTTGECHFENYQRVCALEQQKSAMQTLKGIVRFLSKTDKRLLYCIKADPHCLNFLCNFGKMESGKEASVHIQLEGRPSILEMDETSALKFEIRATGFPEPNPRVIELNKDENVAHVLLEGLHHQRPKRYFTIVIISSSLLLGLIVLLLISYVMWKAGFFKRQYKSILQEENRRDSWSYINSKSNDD
Peptide text beside a SMILES is read from it. * marks the point of attachment. Boc = CC(C)(C)OC(=O)*; OBn = c1ccc(CO*)cc1
Kindly supply the reported inhibition values for the records listed here.
Numbers only; they are read as %.

Prompt: Provide one value: measured inhibition of COC(=O)c1cc(-c2ccc(C)o2)nc2ccccc12
Completion: -21.7

Prompt: Provide one value: measured inhibition of CC1(C)OC2OC(C(=O)N/N=C/c3ccccc3F)C3OC(C)(C)OC3C2O1 (stereo unspecified)
Completion: 12.8

Prompt: Provide one value: measured inhibition of Cn1c(=O)c2c(nc(SCCN3CCCCC3)n2C)n(C)c1=O
Completion: -0.27

Prompt: Provide one value: measured inhibition of CC(=O)Nc1cc(O)cc(O)c1
Completion: 11.9

Prompt: Provide one value: measured inhibition of COc1cc2c(cc1OC)-c1cc(OCc3ccccc3Cl)nc(=O)n1CC2
Completion: 9.09

Prompt: Provide one value: measured inhibition of O=C(O)C[C@@H](O)C(=O)O
Completion: 0.69

Prompt: Provide one value: measured inhibition of O=C(Cc1ccc(Br)cc1)c1ccc(O)cc1O
Completion: -23.6

Prompt: Provide one value: measured inhibition of CCCCC/C=C\C[C@H](O)/C=C/c1cccc(C[C@H](O)CCCCO)n1
Completion: -3.24

Prompt: Provide one value: measured inhibition of COC(=O)c1ccccc1OCCOCCOc1cccc2ccc(C)nc12
Completion: 14.7

Prompt: Provide one value: measured inhibition of COc1ccc2cc(CCC(C)=O)ccc2c1
Completion: 2.56

Prompt: Provide one value: measured inhibition of CC(NCCC(c1ccccc1)c1ccccc1)c1ccccc1 (stereo unspecified)
Completion: 6.46

Prompt: Provide one value: measured inhibition of O=C1CC(c2ccc(F)cc2)Cc2nc(NCC3CCCO3)ncc21 (stereo unspecified)
Completion: 6.29

Prompt: Provide one value: measured inhibition of CN(C)c1cc(NC(=O)CN2CCOCC2)c2ccccc2n1
Completion: -9.06

Prompt: Provide one value: measured inhibition of COc1cc2c(cc1O)CC[C@@H]1[C@@H]2CC[C@]2(C)[C@@H](O)CC[C@@H]12
Completion: 44.9

Prompt: Provide one value: measured inhibition of CC1(C)CC(=O)C(C2(O)C(=O)Nc3ccccc32)CO1 (stereo unspecified)
Completion: 11.7

Prompt: Provide one value: measured inhibition of CCNC(=S)Nc1ccc(OC(F)(F)F)cc1
Completion: -1.17

Prompt: Provide one value: measured inhibition of CCOC(=O)[C@H](CCc1ccccc1)N[C@@H](C)C(=O)N1CCC[C@H]1C(=O)O
Completion: -5.64

Prompt: Provide one value: measured inhibition of O=C(CCCN1CC=C(n2c(=O)[nH]c3ccccc32)CC1)c1ccc(F)cc1
Completion: 5.36

Prompt: Provide one value: measured inhibition of N=C1C(c2ccccc2)=C(O)CN1CCCO
Completion: 2.3

Prompt: Provide one value: measured inhibition of CN(C)CCCNc1ncnc2c1cnn2-c1ccccc1
Completion: 16

Prompt: Provide one value: measured inhibition of Cc1cc(-c2nn(-c3ccccc3F)cc2CN2CCC(O)CC2)c(C)s1
Completion: -7.7

Prompt: Provide one value: measured inhibition of N=c1ccn(CC(=O)NC(N)=O)c2ccccc12
Completion: 12.8

Prompt: Provide one value: measured inhibition of CC(C)CC(NC(=O)C(NC(=O)OC(C)(C)C)C(C)C)C(=O)NC(CCC(=O)OCc1ccccc1)C(N)=O (stereo not drawn) (Boc-Val-Leu-Glu(OBn)-NH2; configuration not given here)
Completion: 3.49

Prompt: Provide one value: measured inhibition of CN1C(=O)C(O)(CC(=O)c2ccccc2O)c2cc(Br)ccc21 (stereo unspecified)
Completion: 16.6

Prompt: Provide one value: measured inhibition of COc1ccc(/C=N\NC(=O)CCc2c(C)n[nH]c2C)c(OC)c1OC
Completion: -3.16

Prompt: Provide one value: measured inhibition of CC(=O)O[C@]1(C(C)=O)CC[C@H]2[C@@H]3C=C(C)C4=CC(=O)CC[C@]4(C)[C@H]3CC[C@@]21C
Completion: -0.27

Prompt: Provide one value: measured inhibition of COc1ccc(CCNC(=O)C(=O)Nc2ccc3c(c2)OCO3)cc1OC
Completion: -4.9

Prompt: Provide one value: measured inhibition of CCOC(=O)c1cc2cc3ccccc3cc2[nH]1
Completion: -1.79

Prompt: Provide one value: measured inhibition of NC(N)=NC(=O)c1nc(Cl)c(N)nc1N
Completion: 7.4

Prompt: Provide one value: measured inhibition of Clc1ccccc1CN1CCc2sccc2C1
Completion: 6.55

Prompt: Provide one value: measured inhibition of COc1ccc(S(=O)(=O)N2CCN(C(=O)COc3ccc4c(C)cc(=O)oc4c3)CC2)cc1
Completion: 3.67

Prompt: Provide one value: measured inhibition of Cc1ccc2[nH]c3c(c2c1)CN(C(=O)CN1CCSCC1)CC3
Completion: -51.3

Prompt: Provide one value: measured inhibition of COc1ccc2c(c1)C(=O)CC(c1ccccc1F)O2 (stereo unspecified)
Completion: 10

Prompt: Provide one value: measured inhibition of COc1ccccc1C1C(C#N)=C(N)Oc2c1oc(CO)cc2=O (stereo unspecified)
Completion: -11.4

Prompt: Provide one value: measured inhibition of C(=C\c1ccccc1)/CN1CCN(C(c2ccccc2)c2ccccc2)CC1
Completion: -1.3

Prompt: Provide one value: measured inhibition of O=c1cc(Cn2ccnc2)c2cc3c(cc2o1)CCC3
Completion: -11.3

Prompt: Provide one value: measured inhibition of O=C(CCCN1CCC(O)(c2ccc(Cl)cc2)CC1)c1ccc(F)cc1
Completion: 9.92

Prompt: Provide one value: measured inhibition of Cc1ccccc1NC(=O)C1c2ccccc2Oc2ccccc21
Completion: 4.52

Prompt: Provide one value: measured inhibition of CC#C[C@]1(O)CC[C@H]2[C@@H]3CCC4=CC(=O)CCC4=C3[C@@H](c3ccc(N(C)C)cc3)C[C@@]21C
Completion: -10.5

Prompt: Provide one value: measured inhibition of O=C(/C=C/c1ccc2c(c1)OCO2)c1ccccn1
Completion: 4.84

Prompt: Provide one value: measured inhibition of COc1ccc(CCNC(=O)CC(c2ccccc2)c2cccc(C)c2O)cc1OC (stereo unspecified)
Completion: 16.2

Prompt: Provide one value: measured inhibition of C=C(C)COc1ccc(-c2nc(N)ncc2-c2ccc(OC)cc2)c(O)c1
Completion: 20.3

Prompt: Provide one value: measured inhibition of O=C(COc1ccccc1)N1CCN(c2ccccc2)CC1
Completion: -3.97

Prompt: Provide one value: measured inhibition of Cc1csc(CCc2nc(C)cs2)n1
Completion: 2.93

Prompt: Provide one value: measured inhibition of O=C(NC(CO)Cc1ccc([N+](=O)[O-])cc1)C(Cl)Cl (stereo unspecified)
Completion: -11.4

Prompt: Provide one value: measured inhibition of O=C(O)CCSc1nc2ccccc2s1
Completion: -9.57
